# System: TNF-α production in THP-1 cells
# Protocol text: TNF-α Production Assay in THP-1 Cells (LPS stimulated)
# Type: cell-based
# Measurement context: Homo sapiens, THP-1, 24 h
pIC50: −log10 of the molar value.
Recorded endpoint: pIC50

A. CC(C)(O)c1cc2nn([C@H]3CC[C@H](N4CCN(C5CCN(c6cc(F)c(C7CCC(=O)NC7=O)c(F)c6)CC5)CC4)CC3)cc2cc1NC(=O)c1ccc2cc(C#N)cnn12 (stereo partly drawn) [Example 196]
B. COC[C@@H]1CN([C@H]2CC[C@H](n3cc4cc(NC(=O)c5ccc6cc(C#N)cnn56)c(C(C)(C)O)cc4n3)CC2)CCN1CCc1cc(F)c([C@H]2CCC(=O)NC2=O)c(F)c1 [Example 320]
input: // pick larger pIC50 from pair: A vs B Label of pick, please.
output: A

###

# Assay target: IRAK4 (Homo sapiens, UniProt Q9NWZ3)
# Construct: endogenous in cells; host or cells: Karpas299
# Protocol text: IRAK4 Degradation Assay (Karpas299, HTRF/TR-FRET)
# Type: cell-based
# Measurement context: Karpas-299 cells, 24 h treatment; read-out: IRAK4 in Karpas-299 (24 h) DC50
Recorded endpoint: DC50 (nM)

molecule=CC1(C)CN(c2cc(F)c([C@H]3CCC(=O)NC3=O)c(F)c2)C[C@@H]1C(=O)N1CCN([C@H]2CC[C@H](n3cc(NC(=O)c4coc(-c5ccnc(NCC(F)(F)F)c5)n4)c(C(F)F)n3)CC2)CC1 recorded_endpoint=DC50 observed=9.7

1. CC(C)(O)c1cc2nn([C@H]3CC[C@H](N4CCN([C@H]5C[C@@H](c6cc(F)c([C@H]7CCC(=O)NC7=O)c(F)c6)C5)CC4)CC3)cc2cc1NC(=O)c1ccc2cc(C#N)cnn12
2. CC(C)(O)c1cc2nn([C@H]3CC[C@H](N4CCN(C(=O)C5CN(c6cc(F)c([C@H]7CCC(=O)NC7=O)c(F)c6)C5)CC4)CC3)cc2cc1NC(=O)c1cccn(C2CC2)c1=O
3. COc1cc2nn([C@H]3CC[C@H](N4CCN(C(=O)C5CN(c6cc(F)c([C@H]7CCC(=O)NC7=O)c(F)c6)C5)CC4)CC3)cc2cc1C(=O)Nc1cnn2cccnc12
4. N#Cc1cnn2c(C(=O)Nc3cc4cn([C@H]5CC[C@H](N6CCN(CCc7cc(F)c([C@H]8CCC(=O)NC8=O)c(F)c7)CC6)CC5)nc4c4c3OC(F)(F)O4)ccc2c1
5. CC(C)(O)c1cc2nc(C3CCN(C4CCN(C(=O)[C@H]5CCN(c6ccc(N7CCC(=O)NC7=O)cc6)C5)CC4)CC3)cn2cc1NC(=O)c1cccc(C(F)(F)F)n1
input: In this exercise, place the 5 molecules in ascending sequence of their recorded DC50. Response field: labels, in requested order.
output: 3, 1, 2, 4, 5

1. CC(C)(O)c1cc2nn([C@H]3CC[C@H](N4CCN(CCNc5cc(F)c(C6CCC(=O)NC6=O)c(F)c5)CC4)CC3)cc2cc1NC(=O)c1ccc2cc(C#N)cnn12 (stereo partly shown)
2. CC(C)(O)c1cc2nn([C@H]3C[C@H](N4CCN(C5CCN(c6cc(F)c([C@H]7CCC(=O)NC7=O)c(F)c6)CC5)CC4)C3)cc2cc1NC(=O)c1ccc2cc(C#N)cnn12
input: # min-compare on DC50 between 1 and 2 Label of pick, please.
output: 2
(2: 0.6 nM, 1: 1.1 nM)

1. COC[C@H]1CN(C2CN(c3cc(F)c([C@H]4CCC(=O)NC4=O)c(F)c3)C2)CCN1[C@H]1CC[C@H](n2cc3cc(NC(=O)c4ccc5cc(C#N)cnn45)c(C(C)(C)O)cc3n2)CC1
2. CC(C)(O)c1cc2nn([C@H]3C[C@H](N4CCN(C(=O)C5CN(c6cc(F)c([C@H]7CCC(=O)NC7=O)c(F)c6)C5)CC4)C3)cc2cc1NC(=O)c1ccc2cc(C#N)cnn12
3. COC[C@@H]1CN([C@H]2CC[C@H](n3cc4cc(NC(=O)c5ccc6cc(C#N)cnn56)c(C(C)(C)O)cc4n3)CC2)CCN1CC1CN(c2cc(F)c([C@H]3CCC(=O)NC3=O)c(F)c2)C1
4. CC(C)(O)c1cc2nn([C@H]3CC[C@H](CN4CCN(C5CN(c6cc(F)c([C@H]7CCC(=O)NC7=O)c(F)c6)C5)CC4)CC3)cc2cc1NC(=O)c1csc(-c2cn[nH]c2)n1
5. CC(C)(O)c1cc2nn([C@H]3CC[C@H](N4CCN(C5CCN(c6ccc(C7CCC(=O)NC7=O)nc6)CC5)CC4)CC3)cc2cc1NC(=O)c1ccc2cc(C#N)cnn12 (stereo partly shown)
input: In this exercise, place the 5 molecules in ascending sequence of their recorded DC50. Response field: labels, in requested order.
output: 4, 3, 2, 1, 5
(4: 0.2 nM, 3: 0.5 nM, 2: 0.8 nM, 1: 2.1 nM, 5: 4.4 nM)

I. COC[C@@H]1CN(C2CCN(c3cc(F)c([C@H]4CCC(=O)NC4=O)c(F)c3)CC2)CCN1[C@H]1CC[C@H](n2cc3cc(NC(=O)c4ccc5cc(C#N)cnn45)c(C(C)(C)O)cc3n2)CC1
II. CC(C)(O)c1cc2nn(C3CCC(N4C[C@@H]5CN(C6CCN(c7cc(F)c([C@H]8CCC(=O)NC8=O)c(F)c7)CC6)C[C@H]5C4)CC3)cc2cc1NC(=O)c1ccc2cc(C#N)cnn12 (stereo partly shown)
III. Cc1nc(C2CCC(=O)NC2=O)ccc1N1CCC(N2CCC3(CCC(n4cc5cc(NC(=O)c6ccc7cc(C#N)cnn67)c(C(C)(C)O)cc5n4)CC3)CC2)CC1 (stereo not shown)
input: Could you please sort these 3 entries by DC50 from high to low? Response field: labels, in requested order.
output: II, III, I
(II: 4.3 nM, III: 2.9 nM, I: 0.8 nM)

###

# Assay target: IRAK4 (Homo sapiens, UniProt Q9NWZ3)
# Construct: endogenous in cells; host or cells: Karpas299
# Sequence (Q9NWZ3 1-460): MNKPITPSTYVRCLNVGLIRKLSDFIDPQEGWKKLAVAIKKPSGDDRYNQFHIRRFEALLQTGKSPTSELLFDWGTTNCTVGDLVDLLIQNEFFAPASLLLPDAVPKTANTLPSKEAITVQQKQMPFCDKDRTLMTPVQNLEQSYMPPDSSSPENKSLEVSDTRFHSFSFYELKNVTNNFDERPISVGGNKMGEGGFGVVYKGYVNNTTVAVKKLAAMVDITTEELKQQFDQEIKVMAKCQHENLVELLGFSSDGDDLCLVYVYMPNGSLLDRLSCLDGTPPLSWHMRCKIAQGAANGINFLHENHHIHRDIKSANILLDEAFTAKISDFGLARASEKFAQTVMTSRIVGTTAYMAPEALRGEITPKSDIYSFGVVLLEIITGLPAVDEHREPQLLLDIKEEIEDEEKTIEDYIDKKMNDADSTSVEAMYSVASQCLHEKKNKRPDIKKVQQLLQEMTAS
# Protocol text: IRAK4 Degradation Assay (Karpas299, HTRF/TR-FRET)
# Format: cell-based
# Measurement context: Karpas-299 cells, 24 h treatment; read-out: IRAK4 in Karpas-299 (24 h) DC50
Recorded endpoint: DC50 (nM)

Below, 6 molecules whose answers are already recorded.
molecule=CC(C)c1cc(-c2nc(C(=O)Nc3cn([C@H]4CC[C@H](N5CCN(C(=O)[C@@H]6CCN(c7cc(F)c([C@H]8CCC(=O)NC8=O)c(F)c7)C6)CC5)CC4)nc3C(F)F)co2)ccn1 assay_target="IRAK4 (Homo sapiens, UniProt Q9NWZ3)" observed=5.2
molecule=CC(C)(O)c1cc2nn(C34CCC(N5CCN(C6CCN(c7cc(F)c([C@H]8CCC(=O)NC8=O)c(F)c7)CC6)CC5)(CC3)CC4)cc2cc1NC(=O)c1ccc2cc(C#N)cnn12 assay_target="IRAK4 (Homo sapiens, UniProt Q9NWZ3)" observed=2.4
molecule=COc1cc(N2CC(C(=O)N3CCN([C@H]4CC[C@H](n5cc6cc(NC(=O)c7ccc8cc(C#N)cnn78)c(C(C)(C)O)cc6n5)CC4)CC3)C2)cc(F)c1N1CCC(=O)NC1=O assay_target="IRAK4 (Homo sapiens, UniProt Q9NWZ3)" observed=3.3
molecule="CC(C)(O)c1cc2nn(C34CC(N5CCN(CC6CCN(c7ccc8c(c7)CN(C7CCC(=O)NC7=O)C8=O)CC6)CC5)(C3)C4)cc2cc1NC(=O)c1ccc2cc(C#N)cnn12 (stereo not shown)" assay_target="IRAK4 (Homo sapiens, UniProt Q9NWZ3)" observed=1.2
molecule=O=C1CC[C@H](c2c(F)cc(N3CC(C(=O)N4CCN([C@H]5CC[C@H](n6cc7cc(NC(=O)c8cccc(C(F)(F)F)n8)c(C(=O)NC8CC8)cc7n6)CC5)CC4)C3)cc2F)C(=O)N1 assay_target="IRAK4 (Homo sapiens, UniProt Q9NWZ3)" observed=0.5
molecule=N#Cc1cnn2c(C(=O)Nc3cc4cn([C@H]5CC[C@H](N6CCN(C(=O)C7CN(c8cc(F)c([C@H]9CCC(=O)NC9=O)c(F)c8)C7)CC6)CC5)nc4c4c3OCO4)ccc2c1 assay_target="IRAK4 (Homo sapiens, UniProt Q9NWZ3)" observed=0.4

a. CC(C)(O)c1cc2nc(C3CCN(C4CCN(C(=O)[C@@H]5CCN(c6cc(F)c([C@H]7CCC(=O)NC7=O)c(F)c6)C5)CC4)CC3)cn2cc1NC(=O)c1cccc(C(F)(F)F)n1
b. Cn1c(=O)n(C2CCC(=O)NC2=O)c2cccc(CCCN3CCN(C45CC(n6cc7cc(NC(=O)c8ccc9cc(C#N)cnn89)c(C(C)(C)O)cc7n6)(C4)C5)CC3)c21 (stereo not shown)
input: # min-compare on DC50 between a and b Label of pick, please.
output: a

1. CC(C)(O)c1cc2nn([C@H]3CC[C@H](N4CCN(C(=O)C5CN(c6ccc(C7CCC(=O)NC7=O)nc6)C5)CC4)CC3)cc2cc1NC(=O)c1ccc2cc(C#N)cnn12 (stereo partly shown)
2. O=C1CC[C@H](c2c(F)cc(N3CC(C(=O)N4CCN([C@H]5CC[C@H](n6cc(NC(=O)c7coc(-c8ccnc(NCC9CC9)c8)n7)c(C(F)F)n6)CC5)C(=O)C4)C3)cc2F)C(=O)N1
3. CC(C)(O)c1cc2nn([C@H]3CC[C@H](N4CCN(CC5CN(c6cc(F)c([C@H]7CCC(=O)NC7=O)c(F)c6)C5)CC4)CC3)cc2cc1NC(=O)c1coc2cccnc12
input: Could you please sort these 3 entries by DC50 from high to low? Response field: labels, in requested order.
output: 2, 1, 3

A. COC[C@@H]1CN([C@H]2CC[C@H](n3cc4cc(NC(=O)c5ccc6cc(C#N)cnn56)c(C(C)(C)O)cc4n3)CC2)CCN1C1CCN(c2cc(F)c([C@H]3CCC(=O)NC3=O)c(F)c2)CC1
B. CC(C)(O)c1cc2nn([C@H]3CC[C@H](N4CCN(C5CCN(c6ccc7c(c6)CN(C6CCC(=O)NC6=O)C7=O)CC5)CC4)CC3)cc2cc1NC(=O)c1ccc2cc(C#N)cnn12 (stereo partly shown)
input: # min-compare on DC50 between A and B Label of pick, please.
output: B
(B: 0.9 nM, A: 2 nM)
